Data credit: PubChem BioAssay (NCATS)

biological target: Ubiquitin carboxyl-terminal hydrolase 1 (Homo sapiens) (UniProt O94782); test: Inhibitors of USP1/UAF1: Pilot qHTS (AID 504865); conditions: purified USP1/UAF1, Ub-rhodamine cleavage fluorescence; series mostly up to 54.9 µM; also: nearly all actives have a fitted effect of over 35% in size
Sequence (O94782 whole entry, looked up): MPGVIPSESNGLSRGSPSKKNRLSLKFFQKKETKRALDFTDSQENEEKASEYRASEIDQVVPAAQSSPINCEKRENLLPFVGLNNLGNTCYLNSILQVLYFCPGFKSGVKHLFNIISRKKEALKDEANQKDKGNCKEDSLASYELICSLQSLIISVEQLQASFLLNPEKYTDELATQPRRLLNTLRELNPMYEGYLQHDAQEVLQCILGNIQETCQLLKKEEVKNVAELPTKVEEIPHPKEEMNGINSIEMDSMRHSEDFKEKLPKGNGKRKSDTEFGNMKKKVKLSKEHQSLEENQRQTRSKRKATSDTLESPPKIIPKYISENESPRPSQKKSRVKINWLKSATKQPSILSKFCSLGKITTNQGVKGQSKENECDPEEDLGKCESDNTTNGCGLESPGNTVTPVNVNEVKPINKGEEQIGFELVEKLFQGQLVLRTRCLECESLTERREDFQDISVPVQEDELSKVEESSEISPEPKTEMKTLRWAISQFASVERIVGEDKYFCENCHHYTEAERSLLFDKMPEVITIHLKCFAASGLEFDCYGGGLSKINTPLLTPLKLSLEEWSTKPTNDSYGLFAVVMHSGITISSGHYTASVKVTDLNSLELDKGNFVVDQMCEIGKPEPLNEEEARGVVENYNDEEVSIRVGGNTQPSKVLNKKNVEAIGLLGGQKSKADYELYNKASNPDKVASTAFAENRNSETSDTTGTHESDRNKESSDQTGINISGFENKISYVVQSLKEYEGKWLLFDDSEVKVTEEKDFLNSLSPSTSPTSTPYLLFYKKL
Records with an inconclusive call do not appear. Active and inactive are the calls of the source. Calls follow the shape of the dose curve; as a rule, active = well fitted inhibition curve with a large enough effect; inconclusive = small, poorly fitted or top-dose-only effect; inactive = flat fitted curve, though single readings scatter.
Your reply should match one of these outcome classes. active, inactive

Study these solved cases before continuing.
compound	group
O=C(O)c1cc(O)c2c(c1)[C@H]([C@H]1c3cc(C(=O)O)cc(O)c3C(=O)c3c(O[C@@H]4OC(CO)C(O)C(O)C4O)cccc31)c1cccc(O[C@@H]3OC(CO)C(O)C(O)C3O)c1C2=O (stereo partly drawn)	active
COc1ccc2[nH]cc(CCNc3ncncc3-c3ccccc3C(F)(F)F)c2c1	inactive
COCCn1c(=O)c(-c2cccc(C#N)c2)nc2cnc(OCc3ccccc3)nc21	inactive
COc1ccc(-n2c(=O)c(CCc3ccccc3)nc3cnc(OC)nc32)cc1	inactive

Challenge: Lab log entry: COCCn1c(=O)c(-c2cccs2)nc2cnc(Oc3ccccc3)nc21 — outcome as called in the assay?
Response given: inactive

Challenge: Assay result, entry CN(C)c1ccc(-c2cncnc2NCCN2CCOCC2)cc1 — outcome?
Response given: inactive

Challenge: Assay result, entry COc1ccc2[nH]cc(CCNc3nc(-c4ccccc4OC)nc4ccccc34)c2c1 — outcome?
Response given: inactive

Challenge: Outcome? COc1ccc2[nH]cc(CCNc3ncncc3-c3cccc(C#N)c3)c2c1
Response given: inactive

Challenge: # fetch the recorded call for O=c1c(CCc2ccccc2)nc2cncnc2n1Cc1ccccc1 here
Response given: inactive

Challenge: Could you please tell me the result logged for Cc1ccccc1-c1ccc2ncnc(-n3ccnc3)c2c1 in this assay?
Response given: inactive

Challenge: Just curious, what result did COc1ccc(Oc2ncc3nc(-c4cc(F)cc(F)c4)c(=O)n(C4CC4)c3n2)cc1 get here?
Response given: inactive

Challenge: State the result this test recorded for CCN1/C(=C/C=C/C=C/c2sc3ccccc3[n+]2CC)Sc2ccccc21 .
Response given: active

Challenge: Recorded test call requested for COc1ccc2[nH]cc(CCNc3cc(-c4cccc(C#N)c4)ncn3)c2c1
Response given: inactive

Challenge: Per the records of this test, what outcome belongs to COc1ccc2[nH]cc(CCNc3ncncc3-c3ccoc3)c2c1 ?
Response given: inactive

Challenge: Just curious, what result did CN(C)c1ccc(-c2cncnc2NCCc2cnc[nH]2)cc1 get here?
Response given: inactive
